Listed here: items and their measured Emax.
system-name: delF508-CFTR-HRP (Homo sapiens, UniProt P13569, DEL508-508)
Construct: expressed in transfected cells
Sequence (P13569 with tags, fused parts or gaps DEL508-508): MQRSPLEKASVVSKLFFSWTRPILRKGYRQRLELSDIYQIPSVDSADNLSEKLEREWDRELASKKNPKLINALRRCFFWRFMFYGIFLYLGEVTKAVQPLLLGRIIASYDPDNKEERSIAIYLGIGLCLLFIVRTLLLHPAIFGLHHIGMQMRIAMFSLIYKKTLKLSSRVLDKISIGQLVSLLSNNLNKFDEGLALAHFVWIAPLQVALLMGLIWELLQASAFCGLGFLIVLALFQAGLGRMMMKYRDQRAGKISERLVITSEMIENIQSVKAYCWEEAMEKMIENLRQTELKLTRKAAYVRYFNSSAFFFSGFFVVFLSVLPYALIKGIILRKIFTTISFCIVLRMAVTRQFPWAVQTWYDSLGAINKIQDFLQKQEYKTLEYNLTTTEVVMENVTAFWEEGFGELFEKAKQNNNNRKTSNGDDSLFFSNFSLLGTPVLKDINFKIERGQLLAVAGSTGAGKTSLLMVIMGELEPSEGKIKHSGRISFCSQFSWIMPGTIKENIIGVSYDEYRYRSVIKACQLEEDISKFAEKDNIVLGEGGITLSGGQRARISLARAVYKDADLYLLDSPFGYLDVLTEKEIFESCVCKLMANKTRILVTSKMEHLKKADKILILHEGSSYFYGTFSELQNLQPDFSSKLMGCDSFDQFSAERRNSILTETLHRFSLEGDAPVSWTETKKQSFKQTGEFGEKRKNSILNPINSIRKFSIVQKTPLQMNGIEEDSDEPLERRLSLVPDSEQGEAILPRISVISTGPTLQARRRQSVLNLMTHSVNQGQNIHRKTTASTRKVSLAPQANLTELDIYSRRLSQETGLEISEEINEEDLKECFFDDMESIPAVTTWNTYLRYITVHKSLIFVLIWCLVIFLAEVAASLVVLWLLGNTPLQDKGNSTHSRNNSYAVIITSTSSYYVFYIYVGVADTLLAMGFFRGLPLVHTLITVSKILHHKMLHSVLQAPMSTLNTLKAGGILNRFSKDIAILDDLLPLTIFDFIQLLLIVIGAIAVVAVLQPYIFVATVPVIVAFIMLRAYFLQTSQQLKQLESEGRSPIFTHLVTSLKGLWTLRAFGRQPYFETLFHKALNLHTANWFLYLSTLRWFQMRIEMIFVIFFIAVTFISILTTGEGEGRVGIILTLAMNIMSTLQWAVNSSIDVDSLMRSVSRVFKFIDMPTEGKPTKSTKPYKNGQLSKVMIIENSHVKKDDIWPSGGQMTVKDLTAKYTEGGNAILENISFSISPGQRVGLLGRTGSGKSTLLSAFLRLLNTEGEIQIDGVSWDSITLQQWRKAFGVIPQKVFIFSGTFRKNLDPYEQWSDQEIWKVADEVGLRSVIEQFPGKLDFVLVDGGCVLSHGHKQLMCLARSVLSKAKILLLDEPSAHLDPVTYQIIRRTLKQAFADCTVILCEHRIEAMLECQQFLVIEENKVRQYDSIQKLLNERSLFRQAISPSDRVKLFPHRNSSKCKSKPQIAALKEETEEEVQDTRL
measurement-notes: Measurement of delF508-CFTR-HRP surface expression in CFBE41o- cells (HRP luminescence);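 further: percent efficacy relative to a reference CFTR corrector compound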
Type: cell-based
details: CFBE41o-, read-out: DelF508-CFTR-HRP Amax %
# number then unit; no other words

Below, 3 compounds whose answers are already recorded.
# input compound: CC(C)CCOc1ccc(Cl)cc1OC1(C(=O)NS(=O)(=O)c2cccc(N3CC[C@H](O)C3)n2)CC1 ; wanted: its Emax
297%

# input compound: Cc1ccc(-c2cccc(C(F)F)c2)c(OC2(C(=O)NS(=O)(=O)c3cccc(N4CC[C@H](O)C4)n3)CC2)c1 ; wanted: its Emax
298%

# input compound: O=C(NS(=O)(=O)c1cccc(N2CC(O)C2)n1)C1(Oc2cc(Cl)ccc2C2CCC3(CC2)CC3)CC1 ; wanted: its Emax
418%

Next compound, please.
# input compound: Cc1ccc(C2CCCCC2)c(OC2(C(=O)NS(=O)(=O)c3cccc(N4CCC(C(=O)O)CC4)n3)CC2)c1 ; wanted: its Emax
34%
